system: NCI-H1876 complex spheroid growth, % test/control; test: Anticancer human tumor NCI-H1876 cell line growth inhibition [Asc]; settings: curve of first compound; second compound 0.00316 µM;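 further: compound exposure lasted 7 days starting three days after seeding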
TEST READOUT: IC50

-- ask // IC50 lookup, key: CCN1C(C(=O)NC23CCC(C(=O)O)(CC2)CC3)C(c2cccc(Cl)c2F)C2(C(=O)Nc3cc(Cl)ccc32)C12CCCCC2 (stereo not given) + CNC(C)C(=O)NC1CN(S(=O)(=O)c2cccc(S(=O)(=O)N3CCC4CCC(C(=O)NC(c5ccccc5)c5ccccc5)N4C(=O)C(NC(=O)C(C)NC)C3)c2)CCC2CCC(C(=O)NC(c3ccccc3)c3ccccc3)N2C1=O
-- reply > 3000 nM

-- ask // IC50 lookup, key: NC(=O)C(=Cn1cnc(-c2cc(C(F)(F)F)cc(C(F)(F)F)c2)n1)c1cncnc1 + CNC(C)C(=O)NC1CN(S(=O)(=O)c2cccc(S(=O)(=O)N3CCC4CCC(C(=O)NC(c5ccccc5)c5ccccc5)N4C(=O)C(NC(=O)C(C)NC)C3)c2)CCC2CCC(C(=O)NC(c3ccccc3)c3ccccc3)N2C1=O
-- reply > 300 nM

-- ask // IC50 lookup, key: NC1CCC(NC2CC2c2ccccc2)CC1 (stereo not given) + CNC(C)C(=O)NC1CN(S(=O)(=O)c2cccc(S(=O)(=O)N3CCC4CCC(C(=O)NC(c5ccccc5)c5ccccc5)N4C(=O)C(NC(=O)C(C)NC)C3)c2)CCC2CCC(C(=O)NC(c3ccccc3)c3ccccc3)N2C1=O
-- reply > 100 nM

-- ask // IC50 lookup, key: O=C(c1ccc(F)c(F)c1Nc1ccc(I)cc1F)N1CC(O)([C@@H]2CCCCN2)C1 + CNC(C)C(=O)NC1CN(S(=O)(=O)c2cccc(S(=O)(=O)N3CCC4CCC(C(=O)NC(c5ccccc5)c5ccccc5)N4C(=O)C(NC(=O)C(C)NC)C3)c2)CCC2CCC(C(=O)NC(c3ccccc3)c3ccccc3)N2C1=O
-- reply > 1000 nM

-- ask // IC50 lookup, key: Cn1ncnc1[C@H]1c2n[nH]c(=O)c3cc(F)cc(c23)N[C@@H]1c1ccc(F)cc1 + CNC(C)C(=O)NC1CN(S(=O)(=O)c2cccc(S(=O)(=O)N3CCC4CCC(C(=O)NC(c5ccccc5)c5ccccc5)N4C(=O)C(NC(=O)C(C)NC)C3)c2)CCC2CCC(C(=O)NC(c3ccccc3)c3ccccc3)N2C1=O
-- reply > 100 nM

Provenance of the data: PubChem BioAssay AID1963441
